Attribution: PubChem BioAssay AID489008

Potency values, listed per item
- System tested: Ferritin light chain (Equus caballus)
- Assay procedure: Confirmation Assay for Identification of Novel General Anesthetics; further: potency means the concentration at half of the fitted maximal effect; nearly all actives have a fitted effect of over 40% in size
- Condition notes: apoferritin 1-aminoanthracene fluorescence displacement
Inconclusive results are not listed. Calls of active or inactive are those of the source. The call rests on the fitted dose curve; in most records, active means well fitted inhibition curve with a large enough effect; inconclusive means small, poorly fitted or top-dose-only effect; inactive means flat fitted curve, though single readings scatter.

Consider the reported Potency for these molecules:
INSERT INTO measurements (molecule, observed_property, test_result) VALUES
  ('Cc1ccc(CCC(=O)Nc2cc(Cl)ccc2Cl)o1', 'Potency', '7.94 µM (active)'),
  ('Nc1c(C(=O)NCc2ccccc2)nnn1Cc1cccc(Cl)c1', 'Potency', '3.98 µM (active)'),
  ('Cc1ccc(-c2ccc(=O)n(CC(=O)NCc3ccco3)n2)cc1', 'Potency', '11.2 µM (active)');

Exercise: Endpoint output: Potency of `Cc1ccc(-c2ccc(=O)n(CC(=O)NCCC(C)C)n2)cc1` . Value?
Key: 5.01 µM (active)

Exercise: Okay, and `COc1cc(C(=O)O[C@@H]2CC3CC[C@]2(C)C3(C)C)ccc1O` ?
Key: 14.1 µM (active)

* * *

- System tested: Ferritin light chain (Equus caballus) (UniProt P02791)
- Sequence (P02791 2-175 limits assumed): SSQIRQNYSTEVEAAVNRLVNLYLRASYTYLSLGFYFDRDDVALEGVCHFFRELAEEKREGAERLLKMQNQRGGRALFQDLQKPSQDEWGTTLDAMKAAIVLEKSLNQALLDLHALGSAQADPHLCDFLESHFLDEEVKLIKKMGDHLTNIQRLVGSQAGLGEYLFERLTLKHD
- Assay procedure: Confirmation Assay for Identification of Novel General Anesthetics; further: potency means the concentration at half of the fitted maximal effect; nearly all actives have a fitted effect of over 40% in size
- Condition notes: apoferritin 1-aminoanthracene fluorescence displacement
Inconclusive results are not listed. The source made the active and inactive calls. Calls come from the whole dose curve; as a rule, active = well fitted inhibition curve with a large enough effect; inconclusive = small, poorly fitted or top-dose-only effect; inactive = flat fitted curve, though single readings scatter.
Entries and their measured Potency follow.

INSERT INTO results (compound, system_tested, test_result) VALUES
  ('O=C(COc1ccccc1Cl)N1CCCCCCC1', 'Ferritin light chain (Equus caballus) (UniProt P02791)', '15.8 µM (active)'),
  ('NC(=O)Nc1ccc(Oc2ncc(C(F)(F)F)cc2Cl)cc1', 'Ferritin light chain (Equus caballus) (UniProt P02791)', '7.08 µM (active)'),
  ('CCC(CC)C(=O)Nc1ccc(Cl)c(Cl)c1', 'Ferritin light chain (Equus caballus) (UniProt P02791)', '14.1 µM (active)'),
  ('CC1Cc2ccccc2N1C(=O)CSc1ccccc1 (stereo not drawn)', 'Ferritin light chain (Equus caballus) (UniProt P02791)', '14.1 µM (active)'),
  ('Cc1ccccc1CSCC(=O)N/N=C/c1cccs1', 'Ferritin light chain (Equus caballus) (UniProt P02791)', '15.8 µM (active)');

Exercise: # value lookup — system Ferritin light chain (Equus caballus) (UniProt P02791), readout Potency, item `Cc1ccccc1OCC(=O)N1CCCc2ccccc21`
Key: 17.8 µM (active)

Exercise: Same question for Cc1ccc(-c2ccc(=O)n(CC(=O)NC(C)c3ccccc3)n2)cc1 (stereo not drawn) please.
Key: 20 µM (active)

Exercise: Now consider `Oc1ccc(NCc2cccc(OCc3ccccc3)c2)cc1` and answer again.
Key: 15.8 µM (active)

Exercise: And for `Cc1nnc(SCc2ccc(F)cc2Cl)s1` ?
Key: 22.4 µM (active)

Exercise: Follow-up entry: CCc1ccc(NC(=O)C2(C)Cc3ccccc3C(=O)O2)cc1 (stereo not drawn)
Key: 31.6 µM (active)

Exercise: Can you handle O=c1[nH]c(SCC2CCCCO2)nc2ccccc12 (stereo not drawn) next?
Key: 14.1 µM (active)

Exercise: Also, `CC(=O)c1cccc(NC(=O)CN2C(=O)NC3(CCCCCCC3)C2=O)c1` please.
Key: 14.1 µM (active)

Exercise: Next entry: CC(NC(=O)c1ccc(Br)o1)C1CC2CCC1C2 (stereo not drawn)
Key: 8.91 µM (active)
